Source listed as ChEMBL document CHEMBL1833940.

Assay: Tmax in plasma of RT112/luc1 cells implanted athymic nude mouse at 20 mg/kg, po by LC/MS/MS analysis
Type: ADME, organism-based
Set-up: dose 20 mg/kg, route oral
PROPERTY: Tmax

[
  {
    "COMPOUND": "CCN1CCN(c2ccc(Nc3cc(N(C)C(=O)Nc4c(Cl)c(OC)cc(OC)c4Cl)ncn3)cc2)CC1.O=P(O)(O)O [INFIGRATINIB PHOSPHATE]",
    "PROPERTY": "Tmax",
    "OBS_VALUE": "1 h"
  }
]

====

Target: UniProt P07948
Sequence (P07948 whole entry): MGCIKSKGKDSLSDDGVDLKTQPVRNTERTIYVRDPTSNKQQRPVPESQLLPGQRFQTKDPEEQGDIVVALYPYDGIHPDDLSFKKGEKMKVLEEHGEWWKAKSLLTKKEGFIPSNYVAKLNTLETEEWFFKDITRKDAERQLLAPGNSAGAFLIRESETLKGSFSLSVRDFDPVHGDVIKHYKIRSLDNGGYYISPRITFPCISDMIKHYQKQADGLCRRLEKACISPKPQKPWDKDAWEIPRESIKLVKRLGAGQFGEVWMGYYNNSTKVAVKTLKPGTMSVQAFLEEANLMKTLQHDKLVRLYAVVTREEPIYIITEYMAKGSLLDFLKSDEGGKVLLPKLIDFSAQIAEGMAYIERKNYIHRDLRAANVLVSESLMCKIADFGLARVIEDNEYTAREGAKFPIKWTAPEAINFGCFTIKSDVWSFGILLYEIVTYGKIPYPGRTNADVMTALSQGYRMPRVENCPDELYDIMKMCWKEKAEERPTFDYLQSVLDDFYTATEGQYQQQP
Assay: Inhibition of recombinant LYN kinase
pIC50: −log10 of the molar value.

[
  {
    "COMPOUND": "CCN1CCN(c2ccc(Nc3cc(N(C)C(=O)Nc4c(Cl)c(OC)cc(OC)c4Cl)ncn3)cc2)CC1.O=P(O)(O)O [INFIGRATINIB PHOSPHATE]",
    "pIC50": 6.52
  }
]

====

Molecular target: Tyrosine-protein kinase Yes (Homo sapiens, UniProt P07947)
Experiment: Inhibition of recombinant YES kinase

[
  {
    "COMPOUND": "CCN1CCN(c2ccc(Nc3cc(N(C)C(=O)Nc4c(Cl)c(OC)cc(OC)c4Cl)ncn3)cc2)CC1.O=P(O)(O)O [INFIGRATINIB PHOSPHATE]",
    "EXPERIMENTAL_TARGET": "Tyrosine-protein kinase Yes (Homo sapiens, UniProt P07947)",
    "IC50": "1100 nM"
  }
]

====

Assay: Clearance in Wistar rat at 5 mg/kg, iv by LC-MS/MS analysis
Format: ADME, organism-based
Design: dose 5 mg/kg, route intravenous
Conditions: in vivo
PROPERTY: clearance (mL/min/kg)

[
  {
    "COMPOUND": "CCN1CCN(c2ccc(Nc3cc(N(C)C(=O)Nc4c(Cl)c(OC)cc(OC)c4Cl)ncn3)cc2)CC1.O=P(O)(O)O [INFIGRATINIB PHOSPHATE]",
    "OBS_VALUE": 60
  }
]

====

Molecular target: Non-receptor tyrosine-protein kinase TYK2 (Homo sapiens)
Experiment: Inhibition of recombinant TYK2
pIC50: −log10 of the molar value.
PROPERTY: pIC50

[
  {
    "COMPOUND": "CCN1CCN(c2ccc(Nc3cc(N(C)C(=O)Nc4c(Cl)c(OC)cc(OC)c4Cl)ncn3)cc2)CC1.O=P(O)(O)O [INFIGRATINIB PHOSPHATE]",
    "EXPERIMENTAL_TARGET": "Non-receptor tyrosine-protein kinase TYK2 (Homo sapiens)",
    "PROPERTY": "pIC50",
    "OBS_VALUE": "< 5.00"
  }
]

====

Target: Tyrosine-protein kinase ZAP-70 (Homo sapiens, UniProt P43403)
Experiment: Inhibition of recombinant ZAP70
pIC50: −log10 of the molar value.

[
  {
    "COMPOUND": "CCN1CCN(c2ccc(Nc3cc(N(C)C(=O)Nc4c(Cl)c(OC)cc(OC)c4Cl)ncn3)cc2)CC1.O=P(O)(O)O [INFIGRATINIB PHOSPHATE]",
    "pIC50": "< 5.00"
  }
]

====

Test: Inhibition of LCK-B-mediated proliferation of mouse BAF3 cells transformed with Tel-kinase construct
Assay type: cell-based
pIC50: −log10 of the molar value.

[
  {
    "COMPOUND": "CCN1CCN(c2ccc(Nc3cc(N(C)C(=O)Nc4c(Cl)c(OC)cc(OC)c4Cl)ncn3)cc2)CC1.O=P(O)(O)O [INFIGRATINIB PHOSPHATE]",
    "pIC50": 5.61
  }
]

====

Assay: Half life in tumor of RT112/luc1 cells implanted athymic nude mouse at 20 mg/kg, po by LC/MS/MS analysis
Type: ADME, organism-based, Neoplasm
Design: dose 20 mg/kg, route oral

[
  {
    "MOLECULE": "CCN1CCN(c2ccc(Nc3cc(N(C)C(=O)Nc4c(Cl)c(OC)cc(OC)c4Cl)ncn3)cc2)CC1.O=P(O)(O)O [INFIGRATINIB PHOSPHATE]",
    "UNITS": "h",
    "half-life": 13
  }
]

====

Test: Oral bioavailability in Wistar rat at 10 mg/kg
Type: ADME, organism-based
Conditions: in vivo

[
  {
    "COMPOUND": "CCN1CCN(c2ccc(Nc3cc(N(C)C(=O)Nc4c(Cl)c(OC)cc(OC)c4Cl)ncn3)cc2)CC1.O=P(O)(O)O [INFIGRATINIB PHOSPHATE]",
    "bioavailability (%)": 51
  }
]

====

Molecular target: Protein kinase C alpha type (Homo sapiens)
Assay: Inhibition of recombinant PKCalpha
pIC50: −log10 of the molar value.

[
  {
    "MOLECULE": "CCN1CCN(c2ccc(Nc3cc(N(C)C(=O)Nc4c(Cl)c(OC)cc(OC)c4Cl)ncn3)cc2)CC1.O=P(O)(O)O [INFIGRATINIB PHOSPHATE]",
    "EXPERIMENTAL_TARGET": "Protein kinase C alpha type (Homo sapiens)",
    "pIC50": "< 5.00"
  }
]

====

Biological target: Hepatocyte growth factor receptor (Homo sapiens, UniProt P08581)
Sequence (P08581 whole entry): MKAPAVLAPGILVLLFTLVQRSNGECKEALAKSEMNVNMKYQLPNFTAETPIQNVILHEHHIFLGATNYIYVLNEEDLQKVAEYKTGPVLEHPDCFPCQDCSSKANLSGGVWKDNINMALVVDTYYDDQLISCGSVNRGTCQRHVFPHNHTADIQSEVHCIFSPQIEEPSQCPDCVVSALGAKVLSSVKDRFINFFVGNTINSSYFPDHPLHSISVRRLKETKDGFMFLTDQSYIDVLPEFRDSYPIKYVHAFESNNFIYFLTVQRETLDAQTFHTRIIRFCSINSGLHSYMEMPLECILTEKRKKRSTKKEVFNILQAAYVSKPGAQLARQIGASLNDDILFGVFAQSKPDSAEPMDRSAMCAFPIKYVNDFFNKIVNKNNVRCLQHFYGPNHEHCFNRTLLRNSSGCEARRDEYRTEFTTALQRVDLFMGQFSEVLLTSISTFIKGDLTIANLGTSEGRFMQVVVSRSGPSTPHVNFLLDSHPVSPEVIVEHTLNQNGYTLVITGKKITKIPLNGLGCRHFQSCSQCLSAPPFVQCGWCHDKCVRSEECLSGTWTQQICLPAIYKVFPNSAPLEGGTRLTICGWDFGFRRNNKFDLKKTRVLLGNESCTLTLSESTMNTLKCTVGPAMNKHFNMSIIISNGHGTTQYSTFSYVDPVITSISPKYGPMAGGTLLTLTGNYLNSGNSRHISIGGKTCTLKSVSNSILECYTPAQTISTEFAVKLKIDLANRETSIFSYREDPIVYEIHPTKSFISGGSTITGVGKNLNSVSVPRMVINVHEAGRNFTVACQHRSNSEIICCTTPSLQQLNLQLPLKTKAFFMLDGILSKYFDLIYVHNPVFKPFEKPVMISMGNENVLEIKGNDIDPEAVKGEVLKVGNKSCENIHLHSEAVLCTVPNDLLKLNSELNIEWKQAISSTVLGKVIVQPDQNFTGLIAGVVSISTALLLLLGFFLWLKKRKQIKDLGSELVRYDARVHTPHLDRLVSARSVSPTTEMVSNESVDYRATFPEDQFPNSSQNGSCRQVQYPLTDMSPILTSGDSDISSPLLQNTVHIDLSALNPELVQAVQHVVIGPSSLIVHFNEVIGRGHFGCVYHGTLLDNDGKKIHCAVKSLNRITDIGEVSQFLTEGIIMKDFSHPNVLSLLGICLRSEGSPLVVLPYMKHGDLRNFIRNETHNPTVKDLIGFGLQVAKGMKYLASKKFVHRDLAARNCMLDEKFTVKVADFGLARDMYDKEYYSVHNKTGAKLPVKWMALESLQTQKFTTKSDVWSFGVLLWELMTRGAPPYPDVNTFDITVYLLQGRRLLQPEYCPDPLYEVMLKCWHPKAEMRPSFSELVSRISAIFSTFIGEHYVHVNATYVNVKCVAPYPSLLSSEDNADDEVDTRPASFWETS
Assay: Inhibition of recombinant MET
pIC50: −log10 of the molar value.

[
  {
    "COMPOUND": "CCN1CCN(c2ccc(Nc3cc(N(C)C(=O)Nc4c(Cl)c(OC)cc(OC)c4Cl)ncn3)cc2)CC1.O=P(O)(O)O [INFIGRATINIB PHOSPHATE]",
    "pIC50": "< 5.00"
  }
]

====

Target: Tyrosine-protein kinase JAK1 (Homo sapiens)
Experiment: Inhibition of recombinant JAK1

[
  {
    "MOLECULE": "CCN1CCN(c2ccc(Nc3cc(N(C)C(=O)Nc4c(Cl)c(OC)cc(OC)c4Cl)ncn3)cc2)CC1.O=P(O)(O)O [INFIGRATINIB PHOSPHATE]",
    "IC50": "> 10 µM"
  }
]

====

Biological target: Serine/threonine-protein kinase PAK 2 (Homo sapiens)
Assay: Inhibition of recombinant PAK2
pIC50: −log10 of the molar value.
PROPERTY: pIC50

[
  {
    "COMPOUND": "CCN1CCN(c2ccc(Nc3cc(N(C)C(=O)Nc4c(Cl)c(OC)cc(OC)c4Cl)ncn3)cc2)CC1.O=P(O)(O)O [INFIGRATINIB PHOSPHATE]",
    "OBS_VALUE": "< 5.00"
  }
]

====

Molecular target: Insulin-like growth factor 1 receptor (Homo sapiens, UniProt P08069)
Sequence (P08069 31-736 limits assumed): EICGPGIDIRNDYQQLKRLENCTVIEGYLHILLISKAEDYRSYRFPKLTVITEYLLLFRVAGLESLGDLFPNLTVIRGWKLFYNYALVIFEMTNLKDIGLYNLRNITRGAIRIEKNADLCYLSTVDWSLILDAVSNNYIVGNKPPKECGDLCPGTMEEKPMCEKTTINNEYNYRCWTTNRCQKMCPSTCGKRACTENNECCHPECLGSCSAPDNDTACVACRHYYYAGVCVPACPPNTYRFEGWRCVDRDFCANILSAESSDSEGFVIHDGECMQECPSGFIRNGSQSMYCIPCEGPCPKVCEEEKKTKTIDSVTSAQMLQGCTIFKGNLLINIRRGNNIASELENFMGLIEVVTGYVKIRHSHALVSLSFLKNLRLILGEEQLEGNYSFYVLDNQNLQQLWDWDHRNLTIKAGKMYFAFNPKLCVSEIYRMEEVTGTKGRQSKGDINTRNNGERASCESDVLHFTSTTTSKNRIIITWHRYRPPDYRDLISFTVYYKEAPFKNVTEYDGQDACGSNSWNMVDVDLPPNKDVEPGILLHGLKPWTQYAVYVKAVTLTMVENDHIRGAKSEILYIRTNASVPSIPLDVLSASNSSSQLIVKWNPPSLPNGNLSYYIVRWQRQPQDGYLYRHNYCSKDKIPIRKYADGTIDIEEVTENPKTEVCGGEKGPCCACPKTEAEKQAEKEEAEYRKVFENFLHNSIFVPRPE
Sequence (P08069 741-1367 limits assumed): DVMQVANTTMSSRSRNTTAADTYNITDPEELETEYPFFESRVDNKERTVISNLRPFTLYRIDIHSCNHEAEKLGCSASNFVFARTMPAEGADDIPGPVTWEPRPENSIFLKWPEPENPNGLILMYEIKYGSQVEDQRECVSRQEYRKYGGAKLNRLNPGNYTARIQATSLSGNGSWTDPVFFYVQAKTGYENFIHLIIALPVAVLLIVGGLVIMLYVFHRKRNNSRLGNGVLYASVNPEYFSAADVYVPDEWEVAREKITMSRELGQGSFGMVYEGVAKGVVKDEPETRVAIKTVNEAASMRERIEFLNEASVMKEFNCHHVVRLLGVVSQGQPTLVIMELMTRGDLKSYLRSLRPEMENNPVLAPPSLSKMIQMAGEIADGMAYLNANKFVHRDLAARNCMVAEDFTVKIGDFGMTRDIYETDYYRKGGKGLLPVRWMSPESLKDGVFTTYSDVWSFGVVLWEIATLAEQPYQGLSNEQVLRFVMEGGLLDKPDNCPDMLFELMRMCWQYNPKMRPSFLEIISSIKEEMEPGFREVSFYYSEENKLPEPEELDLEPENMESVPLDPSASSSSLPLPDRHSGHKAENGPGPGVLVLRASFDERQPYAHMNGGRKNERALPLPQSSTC
Assay: Inhibition of recombinant IGF1R

[
  {
    "COMPOUND": "CCN1CCN(c2ccc(Nc3cc(N(C)C(=O)Nc4c(Cl)c(OC)cc(OC)c4Cl)ncn3)cc2)CC1.O=P(O)(O)O [INFIGRATINIB PHOSPHATE]",
    "IC50": "> 10 µM"
  }
]

====

Molecular target: Casein kinase I isoform gamma-3 (Homo sapiens, UniProt Q9Y6M4)
Assay: Inhibition of recombinant CK1-gamma3
PROPERTY: IC50

[
  {
    "COMPOUND": "CCN1CCN(c2ccc(Nc3cc(N(C)C(=O)Nc4c(Cl)c(OC)cc(OC)c4Cl)ncn3)cc2)CC1.O=P(O)(O)O [INFIGRATINIB PHOSPHATE]",
    "PROPERTY": "IC50",
    "OBS_VALUE": "> 10 µM"
  }
]

====

Assay: Inhibition of recombinant S6K
pIC50: −log10 of the molar value.

[
  {
    "COMPOUND": "CCN1CCN(c2ccc(Nc3cc(N(C)C(=O)Nc4c(Cl)c(OC)cc(OC)c4Cl)ncn3)cc2)CC1.O=P(O)(O)O [INFIGRATINIB PHOSPHATE]",
    "pIC50": "< 5.00"
  }
]

====

Target: Serine/threonine-protein kinase pim-2 (Homo sapiens)
Sequence (Q9P1W9 whole entry): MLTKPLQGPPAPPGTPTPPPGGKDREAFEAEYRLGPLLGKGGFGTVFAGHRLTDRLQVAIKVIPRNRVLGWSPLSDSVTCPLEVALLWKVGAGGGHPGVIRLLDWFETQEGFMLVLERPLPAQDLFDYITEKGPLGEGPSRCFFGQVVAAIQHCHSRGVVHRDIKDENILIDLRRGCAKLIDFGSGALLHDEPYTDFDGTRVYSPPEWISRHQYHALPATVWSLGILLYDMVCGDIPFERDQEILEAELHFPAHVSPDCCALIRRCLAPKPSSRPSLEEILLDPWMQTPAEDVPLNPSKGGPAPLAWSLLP
Test: Inhibition of recombinant PIM2
pIC50: −log10 of the molar value.

[
  {
    "COMPOUND": "CCN1CCN(c2ccc(Nc3cc(N(C)C(=O)Nc4c(Cl)c(OC)cc(OC)c4Cl)ncn3)cc2)CC1.O=P(O)(O)O [INFIGRATINIB PHOSPHATE]",
    "pIC50": "< 5.00"
  }
]

====

Test: Cmax in Wistar rat at 5 mg/kg, iv after 5 mins by LC-MS/MS analysis
Format: ADME, organism-based
Design: dose 5 mg/kg, route intravenous
Details: in vivo
PROPERTY: Cmax

[
  {
    "COMPOUND": "CCN1CCN(c2ccc(Nc3cc(N(C)C(=O)Nc4c(Cl)c(OC)cc(OC)c4Cl)ncn3)cc2)CC1.O=P(O)(O)O [INFIGRATINIB PHOSPHATE]",
    "OBS_VALUE": "970 nM"
  }
]

====

Target: Ephrin type-A receptor 4 (Homo sapiens, UniProt P54764)
Sequence (P54764 whole entry): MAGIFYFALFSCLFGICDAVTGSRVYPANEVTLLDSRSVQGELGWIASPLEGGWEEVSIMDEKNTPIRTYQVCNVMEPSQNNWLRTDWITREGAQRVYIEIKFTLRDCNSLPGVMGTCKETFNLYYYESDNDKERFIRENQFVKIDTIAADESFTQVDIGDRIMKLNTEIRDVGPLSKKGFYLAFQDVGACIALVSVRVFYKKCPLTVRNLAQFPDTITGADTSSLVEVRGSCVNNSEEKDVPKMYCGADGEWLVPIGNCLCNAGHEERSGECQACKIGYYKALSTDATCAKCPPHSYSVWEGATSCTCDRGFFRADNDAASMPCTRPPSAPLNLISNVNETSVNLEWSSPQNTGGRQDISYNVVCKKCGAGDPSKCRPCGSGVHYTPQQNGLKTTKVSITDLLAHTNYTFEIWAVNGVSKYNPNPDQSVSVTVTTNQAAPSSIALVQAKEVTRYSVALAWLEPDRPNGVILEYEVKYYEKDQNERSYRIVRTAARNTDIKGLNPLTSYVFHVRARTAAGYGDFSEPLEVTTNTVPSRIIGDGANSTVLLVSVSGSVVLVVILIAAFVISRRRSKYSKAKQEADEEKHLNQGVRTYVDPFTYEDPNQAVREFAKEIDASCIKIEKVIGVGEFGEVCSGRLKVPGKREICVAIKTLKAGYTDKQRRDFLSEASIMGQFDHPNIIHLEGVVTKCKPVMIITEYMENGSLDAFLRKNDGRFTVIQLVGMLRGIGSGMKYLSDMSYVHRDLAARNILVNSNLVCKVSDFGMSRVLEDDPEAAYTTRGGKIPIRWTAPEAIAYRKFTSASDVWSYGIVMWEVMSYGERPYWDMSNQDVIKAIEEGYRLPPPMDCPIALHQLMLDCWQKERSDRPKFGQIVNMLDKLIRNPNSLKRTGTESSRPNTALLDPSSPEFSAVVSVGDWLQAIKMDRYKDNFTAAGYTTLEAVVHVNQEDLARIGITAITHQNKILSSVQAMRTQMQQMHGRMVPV
Test: Inhibition of recombinant EPHA4
PROPERTY: IC50

[
  {
    "COMPOUND": "CCN1CCN(c2ccc(Nc3cc(N(C)C(=O)Nc4c(Cl)c(OC)cc(OC)c4Cl)ncn3)cc2)CC1.O=P(O)(O)O [INFIGRATINIB PHOSPHATE]",
    "OBS_VALUE": "> 10 µM"
  }
]
